experiment: calcemic activity in rats in vivo; design: species or system rat; key: calcemic activity relative to 1,25(OH)2D3 (=1); conditions: rats in vivo; relative to 1,25(OH)2 D3; low values preferred
observation type: Calc. rel. (calcemic activity relative to 1,25(OH)2 D3)

Would you please look over these solved cases?
C=C1/C(=C\C=C2/CCC[C@]3(C)[C@@H]([C@@H](C)CCCC(C)(C)O)CC[C@@H]23)C[C@@H](O)C[C@@H]1O [MC1288, 20-epi-1,25(OH)2 D3]
2.5
C=C1/C(=C\C=C2/CCC[C@]3(C)[C@@H]([C@H](C)CCCC(C)(C)O)CC[C@@H]23)C[C@@H](O)C[C@@H]1O [1,25(OH)2 D3, 1α,25-dihydroxy-vitamin D3]
1
C=C1/C(=C\C=C2/CCC[C@]3(C)[C@@H]([C@@H](C)C(O)C#CC(O)(CC)CC)CC[C@@H]23)C[C@@H](O)C[C@@H]1O (some centres unmarked)
8.2
C=C1/C(=C\C=C2/CCC[C@]3(C)[C@@H]([C@H](C)/C=C/[C@@H](O)C4CC4)CC[C@@H]23)C[C@@H](O)C[C@@H]1O
0.005
C=C1/C(=C\C=C2/CCC[C@]3(C)[C@@H]([C@@H](C)C(C#CC(O)(CC)CC)OCC)CC[C@@H]23)C[C@@H](O)C[C@@H]1O (some centres unmarked)
1.2

(I) C=C1/C(=C\C=C2/CCC[C@]3(C)[C@@H]([C@@H](C)C(CCC(C)(C)O)OCC)CC[C@@H]23)C[C@@H](O)C[C@@H]1O (single isomer, unassigned)
(II) C=C1/C(=C\C=C2/CCC[C@]3(C)[C@@H]([C@@H](C)C(C#CC(O)(CC)CC)OC)CC[C@@H]23)C[C@@H](O)C[C@@H]1O (some centres unmarked)
input: Hi, I'm comparing two records. Which one has the lower Calc. rel. (calcemic activity relative to 1,25(OH)2 D3), I or II ? // caller expects the label of the chosen entry
output: I
